The reported measurements were obtained from patent US11384113B2.

# Study Target: human recombinant CblC wild type (Homo sapiens, UniProt Q9Y4U1)
# Sequence (Q9Y4U1 whole entry): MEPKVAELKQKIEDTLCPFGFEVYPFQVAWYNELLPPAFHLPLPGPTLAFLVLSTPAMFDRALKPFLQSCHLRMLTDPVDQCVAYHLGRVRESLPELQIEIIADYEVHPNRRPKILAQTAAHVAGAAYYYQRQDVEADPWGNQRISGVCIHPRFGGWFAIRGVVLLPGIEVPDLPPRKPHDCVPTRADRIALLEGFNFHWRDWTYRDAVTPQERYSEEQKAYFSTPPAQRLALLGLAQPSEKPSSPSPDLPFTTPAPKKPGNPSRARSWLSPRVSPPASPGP
# Type: biochemical
# Run Parameters: dealkylation; 5 mM GSH
Measured Metric: Product under ambient conditions, Wild type CblC

// below: answered molecules
Lookup: Please report the recorded Product under ambient conditions, Wild type CblC for CC1=C2N=C(C=C3N=C(C(C)=C4[N-]C(C(CC(N)=O)C4(C)CCC(=O)NCC(C)OP(=O)([O-])OC4C(CO)OC(n5cnc6cc(C)c(C)cc65)C4O)C4(C)N=C1C(CCC(N)=O)C4(C)CC(N)=O)C(CCC(N)=O)C3(C)C)C(CCC(N)=O)C2(C)CC(N)=O.CS[CH2][Co+2] (centres unmarked) .
Found: H2OCbl/Cob(II)alamin

Lookup: Can you look up the measured Product under ambient conditions, Wild type CblC of C/C1=C2/[N-][C@H]([C@H](CC(N)=O)[C@@]2(C)CCC(=O)NC[C@H](C)OP(=O)([O-])O[C@H]2[C@@H](O)[C@@H](n3cnc4cc(C)c(C)cc43)O[C@@H]2CO)[C@]2(C)N=C(/C(C)=C3N=C(/C=C4N=C1[C@@H](CCC(N)=O)C\4(C)C)[C@@H](CCC(N)=O)[C@]\3(C)CC(N)=O)[C@@H](CCC(N)=O)[C@]2(C)CC(N)=O.[CH3-].[Co+3] [MeCbl, Methylcobalamin, reference compound] for me?
Found: H2OCbl

Lookup: What Product under ambient conditions, Wild type CblC value was documented for this molecule, CC1=C2N=C(C=C3N=C(C(C)=C4[N-]C(C(CC(N)=O)C4(C)CCC(=O)NCC(C)OP(=O)([O-])OC4C(CO)OC(n5cnc6cc(C)c(C)cc65)C4O)C4(C)N=C1C(CCC(N)=O)C4(C)CC(N)=O)C(CCC(N)=O)C3(C)C)C(CCC(N)=O)C2(C)CC(N)=O.CCC[CH2][Co+2] (centres unmarked) [BuCbl, butylcobalamin, reference compound] ?
Found: H2OCbl

Lookup: GET /values?readout=Product under ambient conditions, Wild type CblC&item= CC1=C2N=C(C=C3N=C(C(C)=C4[N-]C(C(CC(N)=O)C4(C)CCC(=O)NCC(C)OP(=O)([O-])OC4C(CO)OC(n5cnc6cc(C)c(C)cc65)C4O)C4(C)N=C1C(CCC(N)=O)C4(C)CC(N)=O)C(CCC(N)=O)C3(C)C)C(CCC(N)=O)C2(C)CC(N)=O.CSC[CH2][Co+2] (centres unmarked)
Found: H2OCbl/Cob(II)alamin

Field: next molecule
Lookup: I would be grateful if you could share the reported Product under ambient conditions, Wild type CblC for CC1=C2N=C(C=C3N=C(C(C)=C4[N-]C(C(CC(N)=O)C4(C)CCC(=O)NCC(C)OP(=O)([O-])OC4C(CO)OC(n5cnc6cc(C)c(C)cc65)C4O)C4(C)N=C1C(CCC(N)=O)C4(C)CC(N)=O)C(CCC(N)=O)C3(C)C)C(CCC(N)=O)C2(C)CC(N)=O.CC[CH2][Co+2] (centres unmarked) [PrCbl, propylcobalamin, reference compound] .
Found: H2OCbl

###

# Tested on: fibroblasts from healthy subjects
# Run Description: MMA in conditioned medium of control fibroblasts
# Format: cell-based, human
# Run Parameters: Wiezel control fibroblasts; after 7 days
Label 1 for high-side MMA in conditioned medium (at or above 0.1 μmol/mg protein) and 0 for low-side MMA in conditioned medium (below it).

Use the examples below as a reference point.
Lookup: Identify whether the reported MMA in conditioned medium of the following compound is 0.1 μmol/mg protein or greater: C/C1=C2/[N-][C@H]([C@H](CC(N)=O)[C@@]2(C)CCC(=O)NC[C@H](C)OP(=O)([O-])O[C@H]2[C@@H](O)[C@@H](n3cnc4cc(C)c(C)cc43)O[C@@H]2CO)[C@]2(C)N=C(/C(C)=C3N=C(/C=C4N=C1[C@@H](CCC(N)=O)C\4(C)C)[C@@H](CCC(N)=O)[C@]\3(C)CC(N)=O)[C@@H](CCC(N)=O)[C@]2(C)CC(N)=O.[CH3-].[Co+3] [MeCbl, Methylcobalamin, reference compound]
Found: 0

Lookup: Tell me whether MMA in conditioned medium is at least 0.1 μmol/mg protein here: CC([S][Co+2])C(=O)NCC(=O)O.CC1=C2N=C(C=C3N=C(C(C)=C4[N-]C(C(CC(N)=O)C4(C)CCC(=O)NCC(C)OP(=O)([O-])OC4C(CO)OC(n5cnc6cc(C)c(C)cc65)C4O)C4(C)N=C1C(CCC(N)=O)C4(C)CC(N)=O)C(CCC(N)=O)C3(C)C)C(CCC(N)=O)C2(C)CC(N)=O (centres unmarked)
Found: 1

Lookup: Could you verify whether the entry C/C1=C2N=C(/C=C3N=C(/C(C)=C4\[N-]C(C(CC(N)=O)C4(C)CCC(=O)NCC(C)OP(=O)([O-])OC4C(CO)OC(n5cnc6cc(C)c(C)cc65)C4O)C4(C)N=C1C(CCC(N)=O)C4(C)CC(N)=O)C(CCC(N)=O)C\3(C)C)C(CCC(N)=O)C/2(C)CC(N)=O.NC(CCC(=O)NC(C[S-])C(=O)NCC(=O)O)C(=O)O.[Co+3] (centres unmarked) [GSCbl, glutathionylcobalamin, reference compound] shows MMA in conditioned medium of no less than 0.1 μmol/mg protein?
Found: 1

Lookup: MMA in conditioned medium >= 0.1 μmol/mg protein for CC1=C2N=C(C=C3N=C(C(C)=C4[N-]C(C(CC(N)=O)C4(C)CCC(=O)NCC(C)OP(=O)([O-])OC4C(CO)OC(n5cnc6cc(C)c(C)cc65)C4O)C4(C)N=C1C(CCC(N)=O)C4(C)CC(N)=O)C(CCC(N)=O)C3(C)C)C(CCC(N)=O)C2(C)CC(N)=O.CS[CH2][Co+2] (centres unmarked) ?
Found: 1

Others:
Lookup: Exam item: decide whether the reported MMA in conditioned medium for CC1=C2N=C(C=C3N=C(C(C)=C4[N-]C(C(CC(N)=O)C4(C)CCC(=O)NCC(C)OP(=O)([O-])OC4C(CO)OC(n5cnc6cc(C)c(C)cc65)C4O)C4(C)N=C1C(CCC(N)=O)C4(C)CC(N)=O)C(CCC(N)=O)C3(C)C)C(CCC(N)=O)C2(C)CC(N)=O.NCC[S][Co+2] (centres unmarked) is at least 0.1 μmol/mg protein.
Found: 1
